Listed below: activity at 40 µM values for each entry.
- System: CAL-27 cells (human tongue squamous cell carcinoma cells)
- MEASUREMENT_DESCRIPTION: alamarBlue proliferation assay with CAL-27 cells
- Format: cell-based
- EXPERIMENTAL_CONDITIONS: Homo sapiens, 120 h, 40 μM, relative to DMSO basis level 1.0, read-out: weighted arithmetic mean (AVEw) of normalized fluorescence intensity, activity range

Recorded results for 5 molecules are shown here.
{"MOLECULE": "O=C(NO)c1ccc(Oc2ccc(C3(C(F)(F)F)CC3)cc2)c(F)c1", "activity at 40 µM": "20 to 40%"}
{"MOLECULE": "CNC(=O)c1ccc(Oc2ccc(C(F)(F)F)cc2)nc1", "activity at 40 µM": "80 to 90%"}
{"MOLECULE": "CCCc1ccc(Oc2ccc(C(=O)NO)cc2)cc1 [Compound 166, N-hydroxy-4-(4-propylphenoxy)benzamide]", "activity at 40 µM": "0 to 20%"}
{"MOLECULE": "CN(C)C(=O)c1ccc(Oc2ccc(C3CCCCC3)cc2)nc1", "activity at 40 µM": "80 to 90%"}
{"MOLECULE": "CN(C)C(=O)c1ccc(Oc2ccc(C3CC4CCC3CC4)cc2)cc1 (stereo not drawn)", "activity at 40 µM": "20 to 40%"}

Now let's try a different one.
Param readout = activity at 40 µM; param system = CAL-27 cells (human tongue squamous cell carcinoma cells); param query = CNC(=O)c1ccc(Oc2ccc(C3C[C@@H]4CC[C@H]3C4)cc2)cc1 (stereo partly drawn) ; response: value
0 to 20%
